target: ER (Homo sapiens (Human)); test: In-cell western (ICW) ER degradation assay in T47D cells; type: cell-based; details: maximal ER degradation, 16 hrs
Sequence (P03372 whole entry): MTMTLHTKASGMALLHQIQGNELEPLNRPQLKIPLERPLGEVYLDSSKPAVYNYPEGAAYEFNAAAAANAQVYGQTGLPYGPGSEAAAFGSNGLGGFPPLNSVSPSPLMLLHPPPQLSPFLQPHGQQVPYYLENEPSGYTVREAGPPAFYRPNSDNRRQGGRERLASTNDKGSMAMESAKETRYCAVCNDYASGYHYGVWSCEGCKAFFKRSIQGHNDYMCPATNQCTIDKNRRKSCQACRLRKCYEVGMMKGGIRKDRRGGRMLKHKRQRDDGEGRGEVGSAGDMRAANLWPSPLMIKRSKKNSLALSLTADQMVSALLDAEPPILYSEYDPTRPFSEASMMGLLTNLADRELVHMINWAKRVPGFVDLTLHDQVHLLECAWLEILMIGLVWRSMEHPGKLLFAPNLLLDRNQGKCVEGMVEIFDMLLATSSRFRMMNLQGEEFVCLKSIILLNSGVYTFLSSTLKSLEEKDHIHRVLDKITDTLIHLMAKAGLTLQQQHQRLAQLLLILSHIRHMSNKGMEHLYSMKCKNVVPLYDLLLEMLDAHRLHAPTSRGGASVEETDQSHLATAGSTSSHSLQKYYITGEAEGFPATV
# Dmax per record follows
reported.metric: Dmax

INSERT INTO assay_data (molecule, observed_value) VALUES
  ('COc1cc(N2CCC(CN3CCN(c4cnc(C(=O)NC5CCC(=O)NC5=O)cc4OC)CC3)CC2)ccc1[C@H]1c2ccc(O)cc2OC[C@H]1c1ccccc1 (single isomer, unassigned) [Compound A127]', '25 to 50%'),
  ('O=C1CC[C@H](NC(=O)c2ccc3c(n2)OC[C@H]2CN(C[C@@H]4COC5(CCN(c6ccc([C@@H]7c8ccc(O)cc8OC[C@@H]7c7ccccc7)cc6)CC5)C4)CCN32)C(=O)N1 [Compound A148]', '50 to 75%'),
  ('O=C1CCC(NC(=O)c2ccc3c(n2)OC[C@H]2CN(CC4CC5(CCN(c6ccc([C@@H]7c8ccc(O)cc8OC[C@@H]7c7ccccc7)cc6)CC5)C4)CCN32)C(=O)N1 (stereo partly drawn) [Compound A93]', '50 to 75%');
